FYI, the data here is from PubChem BioAssay.

- subject of test: Follistatin (Homo sapiens) (UniProt P19883)
- Sequence (P19883 whole entry, looked up): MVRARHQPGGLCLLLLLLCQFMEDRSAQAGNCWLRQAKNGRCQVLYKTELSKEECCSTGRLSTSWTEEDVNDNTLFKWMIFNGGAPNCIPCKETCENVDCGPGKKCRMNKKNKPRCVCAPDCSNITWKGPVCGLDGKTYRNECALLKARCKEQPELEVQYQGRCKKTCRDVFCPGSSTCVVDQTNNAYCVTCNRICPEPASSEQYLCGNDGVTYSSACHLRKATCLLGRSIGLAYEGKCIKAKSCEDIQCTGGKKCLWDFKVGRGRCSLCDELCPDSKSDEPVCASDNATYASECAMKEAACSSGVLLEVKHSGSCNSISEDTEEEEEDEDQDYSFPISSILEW
- assay method text: FST protein binding to printed compounds – biochemical, small-molecule microarray, 635/667 nm fluorescence, primary screen (AID 1132)
- run conditions: 635 nm fluorescence, higher = more signal
Entries are grouped by composite z-score into these classes: bottom range = under 0.5, center range = from 0.5 up to 1, top range = 1 and over

1. COc1ccc(C#Cc2ccc3c(c2)[C@]2(C(=O)N3)[C@H](c3ccc(OCCO)cc3)N3[C@H](c4ccccc4)[C@H](c4ccccc4)OC(=O)[C@H]3[C@@H]2C(=O)Nc2nc3ccccc3s2)cc1 : top range
2. CN1C(=O)C2C=CC(C(O)C3=C[C@H]4C[C@@H](C3)C4(C)C)N(Nc3ccc([N+](=O)[O-])cc3[N+](=O)[O-])C2C1=O (stereo not given in full) : top range
3. CCCC[C@H]1OB(O)C[C@H]2C1=C(C)Cn1c(=O)n(-c3ccccc3)c(=O)n12 : bottom range
4. CO[C@H]1O[C@H](CO)[C@@H](OC(=O)Nc2ccccc2-c2ccccc2)[C@H](OC(=O)Nc2ccccc2-c2ccccc2)[C@H]1OC(=O)Nc1ccccc1-c1ccccc1 : top range

Ask: Which composite z-score band matches COc1ccc([Si](C)(C)[C@H]2[C@H](CC(=O)N3CCC[C@H]3CO)O[C@@]3(C(=O)N(Cc4cccc(N5CCC5=O)c4)c4ccccc43)[C@@H]2C)cc1 ?
Reply: top range

Ask: Which composite z-score band matches C=CCN1C(=O)[C@]2(COC(c3ccc(OCCCO)cc3)=N2)Cc2ccccc21 ?
Reply: top range

Ask: Which composite z-score band matches CN1C(=O)C2C=CC(C(O)C(c3ccccc3)c3ccccc3)N(Nc3ccccc3)C2C1=O (stereo not given) ?
Reply: top range

Ask: Which composite z-score band matches CCCNC(=O)[C@@]1(C)c2ccccc2C(=O)N(Cc2ccc(OC(F)(F)F)cc2)[C@H]1c1ccc(CO)cc1 ?
Reply: center range

Ask: Which composite z-score band matches CCOC(=O)C1=CC[C@@H](c2cccc(Cl)c2)N(S(=O)(=O)c2ccc(C)cc2)[C@H]1c1ccc(C#N)cc1 ?
Reply: center range

Ask: Which composite z-score band matches O=C1C[C@@](C(=O)O)(c2ccc([N+](=O)[O-])cc2)[C@@H](c2ccc(CO)cc2I)N1CC12CC3CC(CC(C3)C1)C2 ?
Reply: bottom range

Ask: Which composite z-score band matches O=C1O[C@@H](c2ccccc2)[C@@H](c2ccccc2)N2[C@@H](c3ccc(O)cc3)[C@]3(C(=O)Nc4ccc(C#CCCO)cc43)[C@@H](C(=O)O)[C@H]12 ?
Reply: top range

Ask: Which composite z-score band matches COc1ccc([Si](C)(C)[C@H]2[C@H](CCO)O[C@@]3(C(=O)N(Cc4cccc(N5C(=O)c6cccc7cccc5c67)c4)c4ccccc43)[C@@H]2C)cc1 ?
Reply: bottom range

Ask: Which composite z-score band matches CCCNC(=O)[C@@]1(c2ccc([N+](=O)[O-])cc2)CC(=O)N(CC23CC4CC(CC(C4)C2)C3)[C@@H]1c1ccc(CO)cc1I ?
Reply: center range

Ask: Which composite z-score band matches O[C@@H](Cc1ccccc1)[C@@H](/C=C/c1ccccc1)NCc1ccccc1Br ?
Reply: bottom range

Ask: Which composite z-score band matches C=CCN1C(=O)[C@@]2(O[C@@H](CCO)[C@H]([Si](C)(C)c3ccc(OC)cc3)[C@H]2C)c2cc(NC(C)=O)ccc21 ?
Reply: top range
